Reported inhibition zone (IZ) values for a set of compounds
System: Bacillus subtilis
Protocol Summary: Antibacterial activity against Bacillus subtilis assessed as reduction in microbial growth by measuring zone of inhibition
Type: functional

Compound Structure String	Measurement Units	inhibition zone (IZ)
Nc1ncccc1/C=N/Nc1nc(SCc2ccccc2)ncc1I	mm	17
Ic1cnc(SCc2ccccc2)nc1N/N=C/c1c(-c2ccccc2)c(-c2ccccc2)nn1-c1ccccc1	mm	20
Oc1ccccc1/C=N/Nc1nc(SCc2ccccc2)ncc1I	mm	13
O=[N+]([O-])c1ccc(Nc2nc(SCc3ccccc3)ncc2I)cc1	mm	14
COc1ccc(/C=N/Nc2nc(SCc3ccccc3)ncc2I)cc1O	mm	13
Clc1ccc(/C=N/Nc2nc(SCc3ccccc3)ncc2I)cc1	mm	10
